# TARGET ENTITY: T1, Murine APRIL (mouse, UniProt Q9D777 105-241, limits assumed)
# T1 sequence (looked up): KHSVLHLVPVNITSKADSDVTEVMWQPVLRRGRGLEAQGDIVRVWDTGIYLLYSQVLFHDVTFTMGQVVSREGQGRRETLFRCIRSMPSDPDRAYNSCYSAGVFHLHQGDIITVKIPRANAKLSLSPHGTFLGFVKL
# PROCEDURE TEXT: NNS library, phage display;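 also: ligand versus display occurrence-to-degeneracy ratio and higher means enriched by binding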
# Experimental: This new phage library was subjected to sorting against either BAFF, APRIL or the display target antibody. After 3 rounds of sorting, approximately 48 clones were picked from each selection and the DNA sequences of the phage clones were determined. […] The normalized F′ value corrects for display bias and is calculated as the percent occurrence to percent degeneracy ratio for ligand selection divided by the percent occurrence to percent degeneracy ratio for display efficiency. […]
This section presents binders with their documented F' APRIL values.
QUANTITY NAME: F' APRIL

>>> print(df.to_string())
                                     binder  quantity_name  value_observed
0  SLSCRKEQGKFPDHLLRDCISCASICGQHPKQCAYFCENKLR (receptor, phage library variant, format as m9) [TACI_d2 Y79P]       F' APRIL               2
1  SLSCRKEQGKVYDHLLRDCISCASICGQHPKQCAYFCENKLR (receptor, phage library variant, format as m9) [TACI_d2 F78V]       F' APRIL               1
2  SLSCRKEQGKFYDHLLADCISCASICGQHPKQCAYFCENKLR (receptor, phage library variant, format as m9) [TACI_d2 R84A]       F' APRIL               2
